Target: CAMK1D (human) (UniProt Q8IU85)
Sequence (Q8IU85 whole entry, looked up): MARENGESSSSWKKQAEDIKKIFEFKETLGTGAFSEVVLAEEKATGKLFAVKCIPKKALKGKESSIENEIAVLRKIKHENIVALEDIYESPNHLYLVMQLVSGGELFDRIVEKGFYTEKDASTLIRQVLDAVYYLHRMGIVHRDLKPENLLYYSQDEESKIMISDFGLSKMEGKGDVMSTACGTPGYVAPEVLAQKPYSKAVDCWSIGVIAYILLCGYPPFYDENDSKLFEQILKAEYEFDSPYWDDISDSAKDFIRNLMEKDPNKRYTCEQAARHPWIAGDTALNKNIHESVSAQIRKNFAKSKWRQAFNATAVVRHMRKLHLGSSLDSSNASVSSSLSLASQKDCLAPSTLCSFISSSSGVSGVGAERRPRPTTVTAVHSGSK
Experiment: radiometric filter-binding kinase assay, Kinase HotSpot
Settings: compound 0.5 µM; ATP 10 µM
Reported Endpoint: residual activity (%)

INSERT INTO measurements (molecule, recorded_value) VALUES
  ('O=c1cc(N2CCNCC2)oc2c(-c3ccccc3)cccc12', 82),
  ('O=C(Nc1ccc(Cl)cc1)c1ccccc1NCc1ccncc1', 95.3),
  ('O=c1cc(-c2cccc3c2Sc2ccccc2S3)oc(N2CCOCC2)c1', 106),
  ('CC(C)[C@H](CO)Nc1nc(Nc2cccc(Cl)c2)c2ncn(C(C)C)c2n1', 103),
  ('COc1cc2nccc(Oc3ccc(NC(=S)NC(=O)c4ccccc4C)cc3)c2cc1OC', 72.5),
  ('Oc1ccc(-c2nc(-c3ccc(F)cc3)c(-c3ccncc3)[nH]2)cc1', 102),
  ('Nc1nc(Nc2ccc(S(N)(=O)=O)cc2)nn1C(=O)c1c(F)cccc1F', 97.7),
  ('Cc1ccc(NC(=O)c2ccc(CN3CCN(C)CC3)cc2)cc1Nc1nc(-c2cccnc2)cs1', 110),
  ('Clc1ccc(Nc2nnc(Cc3ccncc3)c3ccccc23)cc1', 108),
  ('O=C(NC(NC(=S)Nc1ccc(F)c([N+](=O)[O-])c1)C(Cl)(Cl)Cl)C(c1ccccc1)c1ccccc1 (stereo not drawn)', 99),
  ('O=C1Nc2ccccc2/C1=C\c1c(Cl)[nH]c2ccccc12', 102),
  ('CCN1/C(=C/C(C)=O)Sc2ccc(OC)cc21', 105),
  ('Nc1nc(Nc2ccc(S(N)(=O)=O)cc2)nn1C(=S)Nc1c(F)cccc1F', 93.4);
